# measurementNotes: ATG_GATA_CIS: Attagene CIS-FACTORIAL HepG2 Assay for human GATA Binding Protein (AID 2282944)
# testContext: HepG2 GATA cis-element reporter, Attagene multiplex mRNA; actives raise or lower the signal
Active and inactive are the calls of the source. The calls were made as follows: active = hit-call score of the fitted dose curve at least 0.9, where 1 is the maximum; inactive = score below 0.9.
endpointLabel: outcome

{"compound": "O=C(NC(=O)c1c(F)cccc1F)Nc1cc(Cl)c(F)c(Cl)c1F", "endpointLabel": "outcome", "result": "inactive"}
{"compound": "Clc1cnc(Oc2ccc(Oc3ncc(Cl)cc3Cl)cc2)c(Cl)c1", "endpointLabel": "outcome", "result": "inactive"}
{"compound": "CC(c1ccc(O)cc1)c1ccc(O)cc1", "endpointLabel": "outcome", "result": "inactive"}
{"compound": "CCCCCCCCCCCCOS(=O)(=O)O", "endpointLabel": "outcome", "result": "inactive"}
{"compound": "CCCCCCCCCCBr", "endpointLabel": "outcome", "result": "inactive"}
{"compound": "O=C(O)c1cc(I)cc(I)c1I", "endpointLabel": "outcome", "result": "inactive"}

Q) Any idea what outcome was measured for OC(Cc1ccccc1Cl)(Cn1[nH]cnc1=S)C1(Cl)CC1 (configuration not stated) ?
A) inactive

Q) Any idea what outcome was measured for COCC(=O)N(c1c(C)cccc1C)[C@H](C)C(=O)OC ?
A) inactive

Q) Any idea what outcome was measured for Cc1c([N+](=O)[O-])c(C)c([N+](=O)[O-])c(C(C)(C)C)c1[N+](=O)[O-] ?
A) inactive

Q) Any idea what outcome was measured for CCOP(=O)(OCC)OC(=CCl)c1ccc(Cl)cc1Cl ?
A) inactive

Q) Any idea what outcome was measured for O=C1c2ccccc2C(=O)C1C(=O)C(c1ccccc1)c1ccc(Cl)cc1 (configuration not stated) ?
A) inactive

Q) Any idea what outcome was measured for COc1ccc([N+](=O)[O-])cc1O ?
A) inactive

----------
# measurementNotes: ATG_VDRE_CIS: Attagene CIS-FACTORIAL HepG2 Assay for human Vitamin D Receptor Element (VDRE) (AID 2282968)
# testContext: HepG2 VDRE cis-reporter transcription, actives raise or lower the signal
The source made the active and inactive calls. The calls were made as follows: active = hit-call score of the fitted dose curve at least 0.9, where 1 is the maximum; inactive = score below 0.9.
Select the correct class. Options are active, inactive and nothing else.

{"compound": "CCNc1nc(NCC)nc(SC)n1", "assignedClass": "inactive"}
{"compound": "OC(Cc1ccccc1Cl)(Cn1cncn1)C1(Cl)CC1 (stereo unspecified)", "assignedClass": "active"}
{"compound": "CN(N=O)c1ccc([N+](=O)[O-])cc1", "assignedClass": "inactive"}
{"compound": "COCC(=O)N(c1c(C)cccc1C)[C@H](C)C(=O)OC", "assignedClass": "inactive"}

Q) Could you kindly confirm the outcome this assay logged for CC(C)[C@H](C(=O)OC(C#N)c1cccc(Oc2ccccc2)c1)c1ccc(OC(F)F)cc1 (stereo partly specified) ?
A) active

Q) Could you kindly confirm the outcome this assay logged for CCC[CH2][Sn]([Cl])([Cl])[CH2]CCC ?
A) active

----------
# measurementNotes: ATG_GRE_CIS: Attagene CIS-FACTORIAL HepG2 Assay for human Glucocorticoid Response Elements (GRE) (AID 2282947)
# testContext: HepG2 GRE cis-reporter, Attagene multiplex mRNA; actives raise or lower the signal
Active and inactive are the calls of the source. The calls were made as follows: active = hit-call score of the fitted dose curve at least 0.9, where 1 is the maximum; inactive = score below 0.9.
Select the correct class. Options are active, inactive and nothing else.

Examples with answers:
{"compound": "Cc1cc(Cl)ccc1N", "assignedClass": "inactive"}
{"compound": "CCCCC(CC)C(=O)Cl (stereo not drawn)", "assignedClass": "inactive"}
{"compound": "COP(=S)(OC)Oc1cc(Cl)c(I)cc1Cl", "assignedClass": "active"}
{"compound": "Fc1cccc(Cl)c1CCl", "assignedClass": "inactive"}
{"compound": "CCNc1nc(NCC)nc(SC)n1", "assignedClass": "inactive"}

Next up:
Q) Could you kindly confirm the outcome this assay logged for O=c1oc2ccccc2c(O)c1C(CC(O)c1ccc(-c2ccc(Br)cc2)cc1)c1ccccc1 (stereo not drawn) ?
A) inactive

----------
# measurementNotes: ATG_TCF_b_cat_CIS: Attagene CIS-FACTORIAL HepG2 Assay for human T-Cell-Factor with beta-catenin (TCF/b-cat) (AID 2282965)
# testContext: HepG2 TCF/beta-catenin cis-reporter transcription, actives raise or lower the signal
Active and inactive are the calls of the source. The calls were made as follows: active = hit-call score of the fitted dose curve at least 0.9, where 1 is the maximum; inactive = score below 0.9.
endpointLabel: AC50

{"molecule": "C=CC(=O)NC(C)(C)CC(C)=O", "AC50": "inactive"}
{"molecule": "CC(C)(C)c1ccc(CCOc2ncnc3ccccc23)cc1", "AC50": "inactive"}
{"molecule": "CCCCCCCCCCCCc1cccc(S(=O)(=O)O)c1", "AC50": "inactive"}
{"molecule": "Oc1cccc(-c2ccccc2)c1", "AC50": "inactive"}

Q) Any idea what AC50 was measured for CCC[N+](CCC)(CCC)CCC ?
A) inactive

Q) Any idea what AC50 was measured for O=NN1CCCCCCC1 ?
A) inactive

Q) Any idea what AC50 was measured for c1ccc2sc(SNC3CCCCC3)nc2c1 ?
A) inactive

Q) Any idea what AC50 was measured for C=CCCl ?
A) inactive

Q) Any idea what AC50 was measured for C=CCOC(F)(C(F)(F)F)C(F)(F)F ?
A) inactive

----------
# measurementNotes: CCTE_Mundy_HCI_Cortical_NOG_NeuronCount: CCTE's Neurite Outgrowth Assay in rat cortical cells for Neuron Count, Mundy Lab (AID 2284236);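 also: neurons counted by imaging betaIII-tubulin and Hoechst stained cortical cells; cells exposed to compound for about 48 hours before fixation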
Inconclusive results are not listed. Calls of active or inactive are those of the source. The calls were made as follows: active = hit-call score of the fitted dose curve at least 0.9, where 1 is the maximum; inconclusive = response in the unintended direction; inactive = score below 0.9.
endpointLabel: AC50

{"compound": "CC1(C)[C@H](C(=O)O[C@H](C#N)c2cccc(Oc3ccccc3)c2)[C@@H]1/C=C(\\Cl)C(F)(F)F", "AC50": "inactive"}
{"compound": "Cc1cc(C(F)(C(F)(F)F)C(F)(F)F)ccc1NC(=O)c1cccc(I)c1C(=O)NC(C)(C)CS(C)(=O)=O", "AC50": "inactive"}
{"compound": "CS(=O)(=O)c1ccc(C(=O)C2C(=O)CCCC2=O)c(Cl)c1COCC(F)(F)F", "AC50": "inactive"}
{"compound": "CCOCn1c(-c2ccc(Cl)cc2)c(C#N)c(Br)c1C(F)(F)F", "AC50": "58 µM (active)"}
{"compound": "Cc1ccccc1OP(=O)(Oc1ccccc1C)Oc1ccccc1C", "AC50": "24.1 µM (active)"}

Q) Any idea what AC50 was measured for OC(Cc1ccccc1Cl)(Cn1[nH]cnc1=S)C1(Cl)CC1 (stereo unspecified) ?
A) inactive

----------
# measurementNotes: APR_HepG2_MitoMembPot_24hr: Apredica 24-hour HepG2 Assay for Mitochondrial Membrane Potential (AID 2282911)
# testContext: imaging, actives raise or lower the signal
Active and inactive are the calls of the source. The calls were made as follows: active = hit-call score of the fitted dose curve at least 0.9, where 1 is the maximum; inactive = score below 0.9.
Select the correct class. Options are active, inactive and nothing else.

{"smilesStr": "COc1ccccc1N", "assignedClass": "active"}
{"smilesStr": "Cc1cc(C)cc(C)c1", "assignedClass": "inactive"}

Q) Could you kindly confirm the outcome this assay logged for CC(C)O.CC(C)O.OCCN(CCO)CCO.OCCN(CCO)CCO.[Ti] ?
A) inactive

Q) Could you kindly confirm the outcome this assay logged for Clc1cccc(Cl)c1 ?
A) inactive

Q) Could you kindly confirm the outcome this assay logged for O=C(O)C1(c2ccc3c(c2)OC[C@H](Cc2ccc(-c4ccccc4)cc2)[C@H]3O)CCCC1 ?
A) active

----------
# Read-out: Plasminogen activator inhibitor-1 (PAI1), SERPINE1 (gene 5054)
# measurementNotes: BSK_BE3C_PAI1: BioMAP Diversity Plus: BE3C Assay for Plasminogen activator inhibitor-1 (PAI1) Biomarker Activity (AID 2283037)
# testContext: primary human bronchial epithelial cells; actives raise or lower the signal
The source made the active and inactive calls. How the source made its calls: active means hit-call score of the fitted dose curve at least 0.9, where 1 is the maximum; inactive means score below 0.9.
Select the correct class. Options are TRUE for active, FALSE for inactive and nothing else.

Examples with answers:
{"compound": "O=c1oc2ccccc2c(O)c1C(CC(O)c1ccc(-c2ccc(Br)cc2)cc1)c1ccccc1 (stereo not drawn)", "assignedClass": "TRUE"}
{"compound": "Oc1cccc(-c2ccccc2)c1", "assignedClass": "FALSE"}

Q) Could you kindly confirm the outcome this assay logged for O=[N+]([O-])c1cccc2ccccc12 ?
A) FALSE

Q) Could you kindly confirm the outcome this assay logged for Cc1cc(Cl)ccc1N ?
A) TRUE

----------
# measurementNotes: ATG_VDRE_CIS: Attagene CIS-FACTORIAL HepG2 Assay for human Vitamin D Receptor Element (VDRE) (AID 2282968)
# testContext: HepG2 VDRE cis-reporter transcription, actives raise or lower the signal
Activity calls are given as the source filed them. The calls were made as follows: active = hit-call score of the fitted dose curve at least 0.9, where 1 is the maximum; inactive = score below 0.9.
Select the correct class. Options are true for active, false for inactive and nothing else.

{"molecule": "Cc1ccc2nc3sc(=O)sc3nc2c1", "assignedClass": "true"}
{"molecule": "C[C@]12CC[C@@H](O)C[C@@H]1CC[C@@H]1[C@@H]2CC[C@]2(C)C(=O)CC[C@@H]12", "assignedClass": "false"}
{"molecule": "N#Cc1ccncc1", "assignedClass": "false"}
{"molecule": "CN(C)C(=S)S", "assignedClass": "false"}
{"molecule": "CC(F)(F)CC(F)(F)F", "assignedClass": "false"}

Q) Could you kindly confirm the outcome this assay logged for CC(C)(C)c1ccc(CCOc2ncnc3ccccc23)cc1 ?
A) false
